System: NCI-H2347
protocol: relative viability (nuclei count vs DMSO), 5 days (fraction); higher = more cells survive
setup conditions: first compound 1.265 µM
value type: relative viability
Lab note: jot down the number only; don't add units.

Study these solved cases before continuing.
Which relative viability is reported for this compound? Clc1ccc(Nc2nnc(Cc3ccncc3)c3ccccc23)cc1 [Vatalanib] + C[C@]1(O)C[C@@H](c2nc(-c3ccc4ccc(-c5ccccc5)nc4c3)c3c(N)nccn32)C1 [Linsitinib] (partner 1 µM)
0.901

Which relative viability is reported for this compound? Clc1ccc(Nc2nnc(Cc3ccncc3)c3ccccc23)cc1 [Vatalanib] + CC1(C)CCC(c2ccc(Cl)cc2)=C(CN2CCN(c3ccc(C(=O)NS(=O)(=O)c4ccc(N[C@H](CCN5CCOCC5)CSc5ccccc5)c(S(=O)(=O)C(F)(F)F)c4)cc3)CC2)C1 [Navitoclax] (partner 0.5 µM)
0.739

Which relative viability is reported for this compound? Clc1ccc(Nc2nnc(Cc3ccncc3)c3ccccc23)cc1 [Vatalanib] + Cc1nc(Nc2ncc(C(=O)Nc3c(C)cccc3Cl)s2)cc(N2CCN(CCO)CC2)n1 [Dasatinib] (partner 0.075 µM)
0.28

Which relative viability is reported for this compound? COc1cc(N2CCC(C(N)=O)CC2)ccc1Nc1nc(N)c(Cl)c(Nc2ccccc2S(=O)(=O)C(C)C)n1 [HG-5-88-01] + CC(=O)c1c(C)c2cnc(Nc3ccc(N4CCNCC4)cn3)nc2n(C2CCCC2)c1=O [Palbociclib] (partner 0.5 µM)
0.431

Please find the next compound below.
Which relative viability is reported for this compound? Clc1ccc(Nc2nnc(Cc3ccncc3)c3ccccc23)cc1 [Vatalanib] + O=C(CCCCCCC(=O)Nc1ccccc1)NO [Vorinostat] (partner 1 µM)
0.501
